# Tested on: SNB-19 CNS
# TEST_NAME: NCI tumour cell line growth inhibition, 48 h; in the data active = GI50 below about 0.43 µM; inactive = the rest
Outcomes: class 1 for active, class 0 for inactive

>>> class_label("COc1cnc2c(c1)C(=O)c1c-2n(CCCn2ccnc2)c(=O)c2cc(F)ccc12")
"class 1"
>>> class_label("Fc1ccc2c(c1)C1=NN(c3ccccc3)C(F)C1CO2 (centres undefined)")
"class 0"
>>> class_label("COc1c(C)c2c(c(O)c1C/C=C(\\C)CCC(=O)O)C(=O)OC2")
"class 1"
>>> class_label("C(#Cc1ccccc1C#Cc1cccs1)c1cccs1")
"class 0"
>>> class_label("O=C([CH-]C(=O)c1ccccc1)c1ccccc1.O=C([CH-]C(=O)c1ccccc1)c1ccccc1.[La+3].[OH-].[OH3+]")
"class 0"
>>> class_label("CC(C)[C@H](N)C(=O)N1CCC[C@H]1B(O)O")
"class 0"
>>> class_label("COc1cc(C[C@H]2c3cc(OC)c(OC)cc3CCN2C)c(Oc2cc3c(cc2OC)-c2c(OC)c(OC)cc4c2[C@H](C3)N(C)CC4)cc1OC")
"class 0"
>>> class_label("O=[N+]([O-])O.[Cu+2].[NH-]CC[NH-].[NH-]CC[NH-]")
"class 0"
>>> class_label("COc1ccc(-c2cn(-c3cc(OC)c(OC)c(OC)c3)c(SCc3ccccc3)n2)cc1OC")
"class 0"
